method: small-molecule binders of probe aNOTCH2, primary screen, biochemical, small-molecule microarray, 635/667 nm fluorescence (AID 1121);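 note: score merges feature fluorescence read at 667 nm with its signal to noise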
reported.conditions: higher = more signal

compound	composite z-score
COC(=O)[C@H](C)NC(=O)CCC1CC(OC(=O)NCCc2ccc(F)cc2)CC2(CCCC(COC(=O)NCCOc3ccccc3)O2)O1 (some centres undefined)	-0.0921
CC(C)CON=C1C[C@@H](O)[C@@H](O)[C@@H]2[C@@H]3C(=O)N(c4ccc(F)cc4F)C(=O)[C@@H]3CC[C@@H]12	-0.0896
COC(=O)C1=C(C)N(Cc2ccccc2)C2=C3C(=O)OCC[C@@H]3[C@@](O)(C(=O)OC)C(=O)N2[C@@H]1c1ccccc1	-0.14
CC(C)=CCCC(C)=CCON=C1C[C@@H](O)[C@@H](O)[C@@H]2[C@@H]3C(=O)N(C4CCCCC4)C(=O)[C@@H]3CC[C@H]12	-0.164

###

method: P. aeruginosa biofilm formation inhibitors, primary screen, strain PAO1, LB-PBS medium, absorbance 600 nm (AID 1176); note: test concentration not given here
reported.conditions: P. aeruginosa PAO1 growth/biofilm, A600, 12 h; higher = more signal

compound	z-score
CON=C1c2cc(OC)ccc2O[C@H](c2cccc(OC)c2)[C@H]1O	-0.455
CC(CCN1CCc2nc(-c3ccccc3)c(-c3ccccc3)cc2C1)=NO[C@H](C)c1cn([C@H](CO)Cc2ccccc2)nn1	0.593
CCOC(=O)[C@H](CC(C)C)NC(=O)CCC1CC(OC(=O)NCCc2ccc(F)cc2)CC2(CCCC(COC(=O)NCc3cccc4ccccc34)O2)O1 (some centres not stated)	0.168
C=CC[C@@H]1C=C[C@H](ON=C(C)CCN2CCCCc3nc(C)c(C)cc32)[C@@H](CO)O1	0.323
C#CCCCON=C1C[C@@H](O)[C@@H](O)[C@@H]2[C@@H]3C(=O)N(C4CCCCC4)C(=O)[C@@H]3CC[C@@H]12	0.164
COC(=O)[C@H](C)NC(=O)CCC1CC(OC(=O)NCc2cccc3ccccc23)CC2(CCCC(COC(=O)NCCOc3ccccc3)O2)O1 (some centres not stated)	-0.458
CC(C)(C)N1C(=O)[C@H]2[C@H]3[C@H](O)[C@H](O)CC(=NOC[C@@H](O)COCc4ccco4)[C@@H]3CC[C@H]2C1=O	0.213

###

Each entry below carries its reported z-score.
method: yeast growth modulation, basal conditions, primary screen, YJM789 clinical isolate, OD600, 24 h (AID 1089);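 note: growth of clinical yeast isolate S. cerevisiae YJM 789 seeded 1000 cells per well; test concentration not given here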
reported.conditions: S. cerevisiae YJM789 growth, higher = more signal, called active from +8 up or from −8 down

compound	z-score
COC(=O)[C@H](C)NC(=O)CCC1CC(OC(=O)NCc2cccc3ccccc23)CC2(CCCC(COC(=O)NCc3ccccc3)O2)O1 (some centres undefined)	-0.68
CON=C(C)CCN1CCCCc2nc(C)c(C)cc21	-0.114
CO[C@H]1COC(=O)[C@H](C)COC(=O)[C@@H](OCc2ccccc2)C=C[C@@H]1C	0.138
CCOC(=O)CCN1C(=O)[C@H]2[C@H]3[C@H](O)[C@H](O)CC(=NO[C@@H]4O[C@H](CO)[C@@H](O)[C@H](O)[C@H]4O)[C@H]3CC[C@H]2C1=O	-0.703

###

method: small-molecule binders of probe aNOTCH2, primary screen, biochemical, small-molecule microarray, 635/667 nm fluorescence (AID 1121);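 note: score merges feature fluorescence read at 667 nm with its signal to noise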
reported.conditions: higher = more signal
Mark class 0 for composite z-score values under -0.1, and class 1 for everything at or above.

test.smiles	label.class
C#CCCCON=C1C[C@@H](O)[C@@H](O)[C@@H]2[C@@H]3C(=O)N([C@@H](C)c4ccccc4)C(=O)[C@@H]3CC[C@@H]12	class 0
CCN1C(=O)[C@H]2[C@@H]3C(=CC[C@H]2C1=O)C(=O)[C@H]1O[C@H]1[C@H]3O	class 1
CN1CCc2nc(-c3ccccc3)c(-c3ccccc3)cc2C1	class 0
COc1ccc(O[C@H]2C=C[C@@H](c3ccccc3)O[C@@H]2CON=C(C)CCN2CCCc3nc(C)c(C)cc32)cc1	class 1
CC(CCN1CCCc2nc(C)c(C)cc21)=NO[C@H](C)c1cn([C@@H]2COC[C@H]2O)nn1	class 1
CCN1C(=O)[C@H]2[C@H]3[C@H](O)[C@H](O)CC(=NO[C@H](C)c4cn([C@H](CO)Cc5ccccc5)nn4)[C@@H]3CC[C@H]2C1=O	class 0
CC(=O)OC[C@H]1O[C@@H](ON=C(C)CCC(=O)OC[C@H]2O[C@H](C#Cc3ccccc3)C=C[C@@H]2Oc2ccc(C)cc2)[C@H](OC(C)=O)[C@@H](OC(C)=O)[C@@H]1OC(C)=O	class 1
